Entry source: patent US20130217672A1

run_description: Cell cytotoxicity test: HT22 cells co-treated with 5 mM glutamate and compound, MTT readout
Format: cell-based, mouse
condition_info: mouse, HT22 cells (mouse hippocampal neuron)
Description: HT22 cells (mouse hippocampal neuron, Salk Institute and KRIBB) were placed in a 96-well plate 3×10^3 cells/well for 16 h before treatment. […] MTT (3-(4,5-dimethylthazol-2-yl)-2,5-diphenyltetrazolium bromide, Sigma®) was treated for 4 h and detected with a plate reader at a wavelength=450 nm [Da-Qing, et. al., Anti-oxidant and anti-inflammatory activities of macelignan in murine hippocampal cell line and primary culture of rat microglia cells, BBRC, 2005, 331, 1264-1269]. […]
Structures can show the parent of a compound that is named as a salt.
CC50 at 24 h: recorded values
Express it in µM; write the number only.

Oc1cccc2c1[nH]c1c(O)cc3c(c12)C[C@@H]1NCC[C@]32CCCC[C@H]12 [Example 11, TFA salt]: 44

Next item in the queue.
Query (compound): Oc1cc2c(c3nccnc13)C[C@@H]1NCC[C@]23CCCC[C@H]13 [Example 9, TFA salt] ; field requested: CC50 at 24 h
44.8

----------
Tested on: HT22 cells (mouse hippocampal neuron)
run_description: Cell cytotoxicity test: HT22 cells co-treated with 5 mM glutamate and compound, MTT readout
Assay type: cell-based
condition_info: Mus musculus, HT-22, five millimolar glutamate co-treated, 24 h, read-out: EC50: neuroprotective effect against glutamate toxicity
Where a name gives a salt, the structure may show the parent alone.
measured_parameter: EC50 (µM)
Express it in µM; write the number only.

Recorded results for 3 compounds are shown here.
CN1CCOc2c(O)cc3c(c21)C[C@@H]1NCC[C@]32CCCC[C@H]12 [Example 4, TFA salt]: 9.6
Cc1ccc2[nH]c3c(O)cc4c(c3c2c1)C[C@@H]1NCC[C@]42CCCC[C@H]12 [Example 14, TFA salt]: 0.908
Oc1cc2c(c3c1OCCO3)C[C@@H]1NCC[C@]23CCCC[C@H]13 [Example 5, TFA salt]: 4.97

Query (compound): CC(=O)N1CCOc2c(O)cc3c(c21)C[C@@H]1NCC[C@]32CCCC[C@H]12 [Example 3, TFA salt] ; field requested: EC50
8.5

----------
Tested on: HT22 cells (mouse hippocampal neuron)
run_description: Cell cytotoxicity test: HT22 cells co-treated with 5 mM glutamate and compound, MTT readout
Type: cell-based
condition_info: Mus musculus, HT-22, five millimolar glutamate co-treated, 24 h, read-out: EC50: neuroprotective effect against glutamate toxicity
Description: HT22 cells (mouse hippocampal neuron, Salk Institute and KRIBB) were placed in a 96-well plate 3×10^3 cells/well for 16 h before treatment. […] MTT (3-(4,5-dimethylthazol-2-yl)-2,5-diphenyltetrazolium bromide, Sigma®) was treated for 4 h and detected with a plate reader at a wavelength=450 nm [Da-Qing, et. al., Anti-oxidant and anti-inflammatory activities of macelignan in murine hippocampal cell line and primary culture of rat microglia cells, BBRC, 2005, 331, 1264-1269]. […]
Structures can show the parent of a compound that is named as a salt.
measured_parameter: pEC50
# pEC50: negative log10 of molar concentration; output just the value

Recorded results for 5 molecules are shown here.
Oc1cc2c(c3c1OCCN3)C[C@@H]1NCC[C@]23CCCC[C@H]13 [Example 1, TFA salt]: 4.57
Oc1ccc2[nH]c3c(O)cc4c(c3c2c1)C[C@@H]1NCC[C@]42CCCC[C@H]12 [Example 13, TFA salt]: 5.95
Oc1cccc2c1[nH]c1c(O)cc3c(c12)C[C@@H]1NCC[C@]32CCCC[C@H]12 [Example 11, TFA salt]: 6.52
CC1COc2c3c(cc(O)c2N1)[C@]12CCCC[C@@H]1[C@H](C3)NCC2 (stereo partly drawn) [Example 6, TFA salt]: 6.50
Oc1cc2c(c3nccnc13)C[C@@H]1NCC[C@]23CCCC[C@H]13 [Example 9, TFA salt]: 4.79

Query (molecule): Oc1cc2c(c3c1NC(c1ccccc1)CO3)C[C@@H]1NCC[C@]23CCCC[C@H]13 (stereo partly drawn) [Example 8, TFA salt] ; field requested: pEC50
6.34
